- experimental target: T1, GkDnaC R117A (Geobacillus kaustophilus HTA426, UniProt Q5KU75 1-454, R117A)
- T1 sequence: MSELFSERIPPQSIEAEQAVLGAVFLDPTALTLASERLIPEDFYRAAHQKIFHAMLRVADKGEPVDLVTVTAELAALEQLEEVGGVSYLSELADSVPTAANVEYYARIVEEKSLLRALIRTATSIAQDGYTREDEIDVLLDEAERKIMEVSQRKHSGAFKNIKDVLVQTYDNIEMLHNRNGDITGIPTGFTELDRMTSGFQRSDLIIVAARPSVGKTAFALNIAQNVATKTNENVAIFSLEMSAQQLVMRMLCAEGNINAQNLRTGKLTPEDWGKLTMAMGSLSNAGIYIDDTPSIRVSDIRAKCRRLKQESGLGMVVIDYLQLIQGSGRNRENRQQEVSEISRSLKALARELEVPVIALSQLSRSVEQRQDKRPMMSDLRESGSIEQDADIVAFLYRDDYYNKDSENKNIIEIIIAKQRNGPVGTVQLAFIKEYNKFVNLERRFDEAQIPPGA
- protocol details: SPR
pKd: −log10 of the molar value.

binder: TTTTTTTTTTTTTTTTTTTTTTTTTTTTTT (ssDNA) [5'Bio-(dT)30]
pKd: 5.83
